Biological target: T1, human IL-10 receptor (hIL-10R alpha and beta chains) on HEK-Blue IL-10 reporter cells (human, UniProt Q13651 22-578; Q08334 20-325)
T1 sequence 1: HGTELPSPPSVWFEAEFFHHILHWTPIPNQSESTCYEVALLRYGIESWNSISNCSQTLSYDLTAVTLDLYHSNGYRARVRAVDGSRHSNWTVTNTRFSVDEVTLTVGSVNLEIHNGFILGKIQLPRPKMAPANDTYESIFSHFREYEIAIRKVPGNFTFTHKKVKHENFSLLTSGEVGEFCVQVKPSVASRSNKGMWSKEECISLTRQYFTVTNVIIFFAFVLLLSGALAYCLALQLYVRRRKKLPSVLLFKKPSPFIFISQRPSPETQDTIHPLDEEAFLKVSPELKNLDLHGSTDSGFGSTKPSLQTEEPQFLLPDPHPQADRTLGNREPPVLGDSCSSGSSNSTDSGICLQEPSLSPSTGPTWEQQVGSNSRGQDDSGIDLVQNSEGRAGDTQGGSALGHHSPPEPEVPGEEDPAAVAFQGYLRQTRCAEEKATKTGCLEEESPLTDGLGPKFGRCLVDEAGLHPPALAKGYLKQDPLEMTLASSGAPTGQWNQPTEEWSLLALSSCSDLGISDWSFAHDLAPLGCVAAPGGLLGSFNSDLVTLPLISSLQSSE
T1 sequence 2: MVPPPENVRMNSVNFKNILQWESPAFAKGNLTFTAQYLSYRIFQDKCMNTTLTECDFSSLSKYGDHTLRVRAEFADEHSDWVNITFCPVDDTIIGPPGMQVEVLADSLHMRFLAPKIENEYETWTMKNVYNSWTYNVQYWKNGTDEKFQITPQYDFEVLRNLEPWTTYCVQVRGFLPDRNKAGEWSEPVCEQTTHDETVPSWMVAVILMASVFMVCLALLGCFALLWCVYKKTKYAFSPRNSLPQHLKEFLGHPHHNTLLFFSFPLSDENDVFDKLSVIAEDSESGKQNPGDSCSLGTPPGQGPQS
Assay: cell-based or functional assay
MEASUREMENT KIND: Abs 630 (100 nM) (Abs 630)
Please state the figure in Abs 630; there is no need to write the unit.

Record excerpt, results attached:
The reported Abs 630 (100 nM) of the binder IL10R binding molecule of SEQ ID NO: 267 (bispecific antibody) QVQLQESGGGSVQAGGSLRLSCAASRFTYSSYCMGWFRQAPGKEREGVASIDSDGSTSYTDSVKGRFTISKDNAKNTLYLQMNSLKPEDTAMYYCALDLMSTVVPGFCGFLLSAGMDYWGKGTQVTVSSGGGSQVQLQESGGGSVEAGGSLRLSCAASGYTHSSYCMGWFRQAPGKEREGVAAIDVDGSTTYADSVKGRFTISKDNAKNTLYLQMNSLKPEDTGMYYCAAEFADCSSNYFLPPGAVRYWGQGTQVTVSSASHHHHHH was 0.53

The reported Abs 630 (100 nM) of the binder IL10R binding molecule of SEQ ID NO: 342 (bispecific antibody) QVQLQESGGGSVQAGGSLRLSCAASGYSYSSYCMGWFRQAPGKEREGVATIDSDGMTRYADSVKGRFTISKDNAKNTLYLQMNSLKPEDTAMYYCAAPLYDCDSGAVGRNPPYWGQGTQVTVSSGGGSQVQLQESGGGSVQAGGSLRLSCAASGYTYSMYCMGWFRQAPGKEREGVAQINSDGSTSYADSVKGRFTISKDNAKNTLYLQMNSLKPEDTAMYYCAADSRVYGGSWYERLCGPYTYEYNYWGQGTQVTVSSASHHHHHH was 0.36

Now examine the next entry.
The reported Abs 630 (100 nM) of the binder IL10R binding molecule of SEQ ID NO: 262 (bispecific antibody) QVQLQESGGGSVQAGGSLRLSCAASRYLYSIDYMAWFRQSPGKEREPVAVIYTASGATFYPDSVKGRFTISQDNAKMTVYLQMNSLKSEDTAMYYCAAVRKTDSYLFDAQSFTYWGQGTQVTVSSGGGSQVQLQESGGGSVQTGGSLRLSCAASGYTYLRGCMGWFRQAPGKEREGVAVMDVVGDRRSYIDSVKGRFTISRDNAANSVYLQMDNLKPEDTAMYYCTAGPNCVGWRSGLDYWGQGTQVTVSSASHHHHHH was 0.4
